# Tested on: RAW-Dual (murine macrophage reporter line)
# test.description: IRF reporter (Lucia luciferase) activity fold change vs agonist alone; higher = enhanced IRF activity
# condition.details: modulator concentration 10 µM; agonist: MPLA […]
Note to self: values exactly at 1 are yes. So IRF reporter at or above 1 is yes, below is no.

{"columns": ["compound", "category"],
 "data": [
  ["CC(C)C1=NN2C(=N)C(=Cc3ccc(-c4ccccc4[N+](=O)[O-])o3)C(=O)N=C2S1", "yes"],
  ["C=C(C)COc1ccc(-c2ncncc2-c2ccccc2)c(O)c1", "yes"],
  ["CN1CCN2c3ncccc3Cc3ccccc3C2C1 (stereo not given)", "yes"],
  ["COC(=O)C1=C(C)NC(C)=C(C(=O)OCCN2CCN(C(c3ccccc3)c3ccccc3)CC2)C1c1cccc([N+](=O)[O-])c1.Cl.Cl (stereo not given)", "yes"],
  ["CC(=O)N1CCN(C(=O)Cn2cnc(-c3ccc(C)cc3)cc2=O)CC1", "yes"],
  ["CN(C)CCN(Cc1ccccc1)c1ccccn1.Cl", "no"],
  ["CCC(C)(Oc1ccc(C2(c3ccc(OC(C)(CC)C(=O)O)cc3)CCCCC2)cc1)C(=O)O (stereo not given)", "yes"],
  ["CN(C)c1ccc(O)c2c1C[C@H]1C[C@H]3[C@H](N(C)C)C(O)=C(C(N)=O)C(=O)[C@@]3(O)C(O)=C1C2=O.Cl", "yes"],
  ["CCN(CC)CCOC(=O)C(c1ccccc1)c1ccccc1", "yes"]
]}

Task: Decide: IRF reporter of `N=C(N)Nc1ccc(Cl)cc1` >= 1?
Result: no

----------
# Test system: RAW-Dual (murine macrophage reporter line)
# test.description: IRF reporter (Lucia luciferase) activity fold change vs agonist alone; higher = enhanced IRF activity
# condition.details: modulator concentration 10 µM; agonist: 3'3'-cGAMP 10 ug/mL
observation.type: IRF reporter
// response body must contain only the number

For orientation, consider the following solved cases.
{"columns": ["molecule", "observation.type", "result.number"],
 "data": [
  ["CCCN1CCC(NCCc2cccc(Cl)c2)CC1", "IRF reporter", 0.704],
  ["COc1cc(=O)n(C)cc1C(=O)Nc1cccnc1", "IRF reporter", 0.943],
  ["Cc1ccc(O)c(C2=NOC(O)(C(F)(F)F)C2)c1 (stereo unspecified)", "IRF reporter", 0.975]
]}

Task: I have this molecule here, `CCC(=O)Nc1ccc(C(=O)NN=Cc2ccc(C#N)cc2)cc1` , and I need its recorded IRF reporter.
Result: 0.972

Task: Request: `O=C(CSc1nc[nH]n1)NC(c1ccccc1)c1ccccc1`
Result: 0.51

Task: Note, next up: C=C1C(=O)O[C@@H]2[C@H]3O[C@]3(C)CC/C=C(\C)CC[C@@H]12 [Prestw-550]
Result: 0.0909

Task: Same read-out for `O=C(OC(=Cc1nccn1Cc1ccc(Cl)cc1)c1ccccc1)c1ccccc1` ?
Result: 0.37

Task: Ok, now `Cc1cc(OCC(=O)NCCn2nc(C3CC3)ccc2=O)cc(C)c1Cl`
Result: 0.956

----------
# Test system: RAW-Dual (murine macrophage reporter line)
# test.description: NF-kB reporter (SEAP) activity fold change vs agonist alone; higher = enhanced NF-kB activity
# condition.details: modulator concentration 10 µM; agonist: MPLA […]
NF-kB reporter overview
Please give the numeric answer without any surrounding text.

Example cases with answers are listed next.
{"columns": ["compound", "observation.type", "result.number"],
 "data": [
  ["COc1ccccc1Cn1c(SC)nc2c(-c3ccccc3)c[nH]c2c1=O", "NF-kB reporter", 0.997],
  ["COc1ccc(NC(=O)c2cn(-c3cc(N4CCSCC4)ncn3)cn2)cc1", "NF-kB reporter", 0.939]
]}

Task: Which NF-kB reporter is reported with RAW-Dual (murine macrophage reporter line) for this entry: `Clc1ccc(C=NNc2cc(N3CCCC3)nc(N3CCCC3)n2)c(Cl)c1` ?
Result: 0.987

Task: And the next one, COc1ccc(C=C(NC(=O)c2cc(OC)c(OC)c(OC)c2)C(=O)NC(C(=O)O)C(C)C)c(OC)c1 (configuration not stated) ?
Result: 0.934

Task: Request: `CCOC(=O)c1ccc(N)cc1.Cl`
Result: 0.997

Task: Continue with `CN1CCN(S(=O)(=O)c2ccc(-c3ccc(S(=O)(=O)N4CCN(C)CC4)cc3)cc2)CC1`
Result: 0.955

Task: Do the same for `CN1CCN(C2=Nc3ccccc3Oc3ccc(Cl)cc32)CC1` please
Result: 0.812

Task: Same read-out for `C[C@@H]1COC(Nc2ccc3ncnc(Nc4ccc(OCc5nccs5)c(Cl)c4)c3c2)=N1` ?
Result: 0.84
